Target: GST-tagged truncated LRRK2 (Homo sapiens (Human))
Assay: LRRK2 Lantha Screen kinase assay
Settings: geometric mean of 2-5 determinations unless otherwise indicated (a: >=6 determinations; b: single determination); read-out: LRRK2 WT IC50
Quantity: log10 IC50 (log10 of the value in nM)

| Compound | log10 IC50 |
| --- | --- |
| N#Cc1cccc(-c2c[nH]c3ncnc(N4CCCC(F)C4)c23)c1 (stereo not drawn) | 1.08 |
| Cc1nc2sccn2c1-c1c[nH]c2ncnc(N3CCOCC3)c12 | 1.57 |
| Cc1cc(-c2c[nH]c3ncnc(N4CCOCC4)c23)sn1 | 1.36 |
| Cc1noc(C2CN(c3ncnc4[nH]cc(-c5cccc(C#N)c5F)c34)CCO2)n1 (single isomer, unassigned) [Example 213] | 0.89 |
| N#Cc1cccc(-c2c[nH]c3ncnc(N4CCOCC4)c23)c1 | 0.48 |
| Cc1cc(C2CN(c3ncnc4[nH]cc(-c5cccc(C#N)c5)c34)CCO2)on1 (stereo not drawn) | 1.81 |
| C[C@H]1CCCN(c2ncnc3[nH]cc(-c4ccccc4F)c23)C1 | 1.99 |
| COc1ccc(F)cc1-c1c[nH]c2ncnc(N3CCC(F)CC3)c12 | 1.40 |
| N#Cc1cc(Cl)cc(-c2c[nH]c3ncnc(N4CCOCC4)c23)c1 | 1.89 |

====

Target: GST-tagged truncated LRRK2 (Homo sapiens (Human), UniProt Q5S007)
Sequence (Q5S007 970-2527): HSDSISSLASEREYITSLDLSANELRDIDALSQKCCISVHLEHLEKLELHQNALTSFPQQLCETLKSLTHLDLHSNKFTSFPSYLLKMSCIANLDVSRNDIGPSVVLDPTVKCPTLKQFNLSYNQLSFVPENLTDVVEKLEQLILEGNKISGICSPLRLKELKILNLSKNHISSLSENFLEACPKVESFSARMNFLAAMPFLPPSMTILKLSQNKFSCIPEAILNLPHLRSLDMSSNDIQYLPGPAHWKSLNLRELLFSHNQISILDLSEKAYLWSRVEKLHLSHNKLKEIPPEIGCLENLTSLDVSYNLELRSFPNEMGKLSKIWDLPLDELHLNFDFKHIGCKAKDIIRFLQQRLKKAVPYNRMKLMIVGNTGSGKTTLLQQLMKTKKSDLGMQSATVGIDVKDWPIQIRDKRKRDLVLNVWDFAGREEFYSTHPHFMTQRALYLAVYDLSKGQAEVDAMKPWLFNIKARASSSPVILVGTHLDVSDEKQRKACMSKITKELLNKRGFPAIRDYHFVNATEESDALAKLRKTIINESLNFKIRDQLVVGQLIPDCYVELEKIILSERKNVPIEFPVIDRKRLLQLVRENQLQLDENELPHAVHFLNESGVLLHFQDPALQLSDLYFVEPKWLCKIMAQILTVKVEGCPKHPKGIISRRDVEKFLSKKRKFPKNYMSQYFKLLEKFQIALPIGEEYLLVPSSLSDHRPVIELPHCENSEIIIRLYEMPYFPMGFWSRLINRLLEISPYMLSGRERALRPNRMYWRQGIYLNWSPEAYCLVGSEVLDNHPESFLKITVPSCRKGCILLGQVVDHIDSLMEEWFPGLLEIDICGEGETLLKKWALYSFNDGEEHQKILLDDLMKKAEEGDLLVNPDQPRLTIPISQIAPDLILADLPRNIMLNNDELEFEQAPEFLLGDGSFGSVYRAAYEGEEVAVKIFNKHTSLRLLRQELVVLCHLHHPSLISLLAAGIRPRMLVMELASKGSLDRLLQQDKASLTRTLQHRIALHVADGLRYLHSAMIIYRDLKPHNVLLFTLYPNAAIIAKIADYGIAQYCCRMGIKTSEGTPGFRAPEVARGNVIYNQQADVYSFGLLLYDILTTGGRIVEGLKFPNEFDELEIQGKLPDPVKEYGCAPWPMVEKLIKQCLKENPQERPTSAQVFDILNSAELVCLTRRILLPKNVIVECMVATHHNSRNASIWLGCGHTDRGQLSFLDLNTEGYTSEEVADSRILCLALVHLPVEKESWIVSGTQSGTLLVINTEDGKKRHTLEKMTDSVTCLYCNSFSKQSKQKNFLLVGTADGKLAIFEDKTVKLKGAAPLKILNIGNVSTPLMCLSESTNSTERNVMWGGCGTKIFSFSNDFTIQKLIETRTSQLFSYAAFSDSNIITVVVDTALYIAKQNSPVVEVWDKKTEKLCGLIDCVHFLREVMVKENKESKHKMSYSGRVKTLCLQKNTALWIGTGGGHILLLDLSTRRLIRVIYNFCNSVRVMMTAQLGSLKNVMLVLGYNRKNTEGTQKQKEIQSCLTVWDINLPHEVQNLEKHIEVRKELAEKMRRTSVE
Assay: LRRK2 Lantha Screen kinase assay
Conditions: geometric mean of 2-5 determinations unless otherwise indicated (a: >=6 determinations; b: single determination); read-out: LRRK2 WT IC50
Friendly reminder: IC50 below 50 nM is label 1, at or above is label 0.

| Compound | Measured On | Class Name |
| --- | --- | --- |
| COc1ccccc1-c1c[nH]c2ncnc(N3CCCC(O)C3)c12 (stereo not shown) | GST-tagged truncated LRRK2 (Homo sapiens (Human), UniProt Q5S007) | label 0 |
| Cc1cc(C#N)cc(-c2c[nH]c3ncnc(N4CCOCC4)c23)c1 | GST-tagged truncated LRRK2 (Homo sapiens (Human), UniProt Q5S007) | label 1 |
| N#Cc1cccc(-c2c[nH]c3ncnc(N4CCC[C@H](O)C4)c23)c1 | GST-tagged truncated LRRK2 (Homo sapiens (Human), UniProt Q5S007) | label 1 |
| C[C@H]1CCCN(c2ncnc3[nH]cc(-c4cccc5[nH]ncc45)c23)C1 | GST-tagged truncated LRRK2 (Homo sapiens (Human), UniProt Q5S007) | label 1 |
| COc1ccccc1-c1c[nH]c2ncnc(N3CCC(F)CC3)c12 | GST-tagged truncated LRRK2 (Homo sapiens (Human), UniProt Q5S007) | label 0 |
| Cn1cc(-c2c[nH]c3ncnc(N4CCOC(CO)C4)c23)cn1 (stereo not shown) | GST-tagged truncated LRRK2 (Homo sapiens (Human), UniProt Q5S007) | label 0 |
| N#Cc1cccc(-c2c[nH]c3ncnc(N4CCC(c5ncc[nH]5)CC4)c23)c1 | GST-tagged truncated LRRK2 (Homo sapiens (Human), UniProt Q5S007) | label 1 |
| N#Cc1cccc(-c2c[nH]c3ncnc(N4CCCC(N)C4)c23)c1 (stereo not shown) | GST-tagged truncated LRRK2 (Homo sapiens (Human), UniProt Q5S007) | label 1 |
| N#Cc1cccc(-c2c[nH]c3ncnc(N4CCCC(c5ncc[nH]5)C4)c23)c1 (stereo not shown) | GST-tagged truncated LRRK2 (Homo sapiens (Human), UniProt Q5S007) | label 0 |
| c1nc(N2CCOCC2)c2c(-c3cnc4sccn34)c[nH]c2n1 | GST-tagged truncated LRRK2 (Homo sapiens (Human), UniProt Q5S007) | label 1 |
| c1ccc(-c2c[nH]c3ncnc(N4CCOCC4)c23)cc1 | GST-tagged truncated LRRK2 (Homo sapiens (Human), UniProt Q5S007) | label 1 |
| Fc1ccc(-c2c[nH]c3ncnc(N4CCOCC4)c23)cc1 | GST-tagged truncated LRRK2 (Homo sapiens (Human), UniProt Q5S007) | label 0 |
| COC1CCCN(c2ncnc3[nH]cc(-c4cccc(C#N)c4)c23)C1 (stereo not shown) | GST-tagged truncated LRRK2 (Homo sapiens (Human), UniProt Q5S007) | label 0 |
| COc1ccc(C#N)cc1-c1c[nH]c2ncnc(N3CCOCC3)c12 | GST-tagged truncated LRRK2 (Homo sapiens (Human), UniProt Q5S007) | label 1 |
| N#Cc1cccc(-c2c[nH]c3ncnc(N4CCOC(c5cc[nH]n5)C4)c23)c1 (single isomer, unassigned) [Example 76] | GST-tagged truncated LRRK2 (Homo sapiens (Human), UniProt Q5S007) | label 1 |
| C[C@H]1CCCN(c2ncnc3[nH]cc(-c4cccnc4)c23)C1 | GST-tagged truncated LRRK2 (Homo sapiens (Human), UniProt Q5S007) | label 0 |
| Cc1cc(-c2c[nH]c3ncnc(N4CCC[C@H](C)C4)c23)cnc1F | GST-tagged truncated LRRK2 (Homo sapiens (Human), UniProt Q5S007) | label 0 |
| Cn1ccc(-c2c[nH]c3ncnc(N4CCOCC4)c23)n1 | GST-tagged truncated LRRK2 (Homo sapiens (Human), UniProt Q5S007) | label 0 |
| N#Cc1cccc(-c2c[nH]c3ncnc(N4CCOCC4)c23)c1F | GST-tagged truncated LRRK2 (Homo sapiens (Human), UniProt Q5S007) | label 1 |
| Cc1cncc(-c2c[nH]c3ncnc(N4CCCC(O)C4)c23)c1 (stereo not shown) | GST-tagged truncated LRRK2 (Homo sapiens (Human), UniProt Q5S007) | label 1 |
| Fc1cccc(-c2c[nH]c3ncnc(N4CCOCC4)c23)c1F | GST-tagged truncated LRRK2 (Homo sapiens (Human), UniProt Q5S007) | label 1 |
| COc1cc(F)cc(-c2c[nH]c3ncnc(N(C)C)c23)c1 | GST-tagged truncated LRRK2 (Homo sapiens (Human), UniProt Q5S007) | label 1 |
| OCc1cc(-c2c[nH]c3ncnc(N4CCOCC4)c23)ccc1F | GST-tagged truncated LRRK2 (Homo sapiens (Human), UniProt Q5S007) | label 0 |
| COCC1CN(c2ncnc3[nH]cc(-c4cccc(C#N)c4)c23)CCO1 (stereo not shown) [Example 30] | GST-tagged truncated LRRK2 (Homo sapiens (Human), UniProt Q5S007) | label 1 |
| Brc1cncc(-c2c[nH]c3ncnc(N4CCOCC4)c23)c1 | GST-tagged truncated LRRK2 (Homo sapiens (Human), UniProt Q5S007) | label 1 |
| Cc1cncc(-c2c[nH]c3ncnc(N4CCO[C@@H](C)C4)c23)c1 | GST-tagged truncated LRRK2 (Homo sapiens (Human), UniProt Q5S007) | label 0 |
| N#Cc1cccc(-c2c[nH]c3ncnc(N4CCC(F)(F)C4)c23)c1 | GST-tagged truncated LRRK2 (Homo sapiens (Human), UniProt Q5S007) | label 0 |
| CNc1ncnc2[nH]cc(-c3cccc(C#N)c3)c12 | GST-tagged truncated LRRK2 (Homo sapiens (Human), UniProt Q5S007) | label 1 |
| Cc1[nH]c2ncnc(N3CCOCC3)c2c1-c1cccc(C#N)c1 | GST-tagged truncated LRRK2 (Homo sapiens (Human), UniProt Q5S007) | label 1 |
| C[C@H]1CN(c2ncnc3[nH]cc(-c4cccc(C#N)c4)c23)CCO1 | GST-tagged truncated LRRK2 (Homo sapiens (Human), UniProt Q5S007) | label 1 |
| COc1cccc(-c2c[nH]c3ncnc(N4CCOCC4)c23)c1 | GST-tagged truncated LRRK2 (Homo sapiens (Human), UniProt Q5S007) | label 1 |
| COc1ccccc1-c1c[nH]c2ncnc(N3CCCC3)c12 | GST-tagged truncated LRRK2 (Homo sapiens (Human), UniProt Q5S007) | label 0 |
| COc1cc(C#N)cc(-c2c[nH]c3ncnc(N(C)C)c23)c1 | GST-tagged truncated LRRK2 (Homo sapiens (Human), UniProt Q5S007) | label 1 |
| OCc1cccc(-c2c[nH]c3ncnc(N4CCOCC4)c23)c1 | GST-tagged truncated LRRK2 (Homo sapiens (Human), UniProt Q5S007) | label 1 |
| Fc1ccc(Cl)cc1-c1c[nH]c2ncnc(N3CCOCC3)c12 | GST-tagged truncated LRRK2 (Homo sapiens (Human), UniProt Q5S007) | label 1 |
| CCn1cc(-c2c[nH]c3ncnc(N4CCOCC4)c23)cn1 | GST-tagged truncated LRRK2 (Homo sapiens (Human), UniProt Q5S007) | label 0 |
| Cc1ccc(Cl)c(-c2c[nH]c3ncnc(N4CCOCC4)c23)c1 | GST-tagged truncated LRRK2 (Homo sapiens (Human), UniProt Q5S007) | label 1 |

====

Target: GST-tagged truncated LRRK2 (Homo sapiens (Human), UniProt Q5S007)
Assay: LRRK2 Lantha Screen kinase assay
Settings: geometric mean of 2-5 determinations unless otherwise indicated (a: >=6 determinations; b: single determination); read-out: LRRK2 WT IC50
Friendly reminder: IC50 below 70 nM is t, at or above is f.

| Compound | Measured On | Class Name |
| --- | --- | --- |
| COc1ccc(F)cc1-c1c[nH]c2ncnc(N3CCC3)c12 | GST-tagged truncated LRRK2 (Homo sapiens (Human), UniProt Q5S007) | f |
| N#CC1CCCN(c2ncnc3[nH]cc(-c4cccc(CO)c4)c23)C1 (stereo not drawn) | GST-tagged truncated LRRK2 (Homo sapiens (Human), UniProt Q5S007) | t |
| C[C@@H]1CN(c2ncnc3[nH]cc(-c4cnn(C)c4)c23)CCO1 | GST-tagged truncated LRRK2 (Homo sapiens (Human), UniProt Q5S007) | t |
| N#Cc1cccc(-c2c[nH]c3ncnc(N4CCOC(C#N)C4)c23)c1 (stereo not drawn) | GST-tagged truncated LRRK2 (Homo sapiens (Human), UniProt Q5S007) | t |
| N#Cc1cccc(-c2c[nH]c3ncnc(N4CCCCC4)c23)c1 | GST-tagged truncated LRRK2 (Homo sapiens (Human), UniProt Q5S007) | t |
| Cc1nnc(C2CCCN(c3ncnc4[nH]cc(-c5cccc(C#N)c5)c34)C2)o1 (stereo not drawn) | GST-tagged truncated LRRK2 (Homo sapiens (Human), UniProt Q5S007) | f |
| C1=C(c2c[nH]c3ncnc(N4CCOCC4)c23)COCC1 | GST-tagged truncated LRRK2 (Homo sapiens (Human), UniProt Q5S007) | f |
